# target-or-test-system: full-length beta-Catenin (Uniprot ID P35222) (Homo sapiens, UniProt P35222)
# Construct: 10 nM full-length beta-Catenin (Uniprot ID P35222)
# Sequence (P35222 whole entry): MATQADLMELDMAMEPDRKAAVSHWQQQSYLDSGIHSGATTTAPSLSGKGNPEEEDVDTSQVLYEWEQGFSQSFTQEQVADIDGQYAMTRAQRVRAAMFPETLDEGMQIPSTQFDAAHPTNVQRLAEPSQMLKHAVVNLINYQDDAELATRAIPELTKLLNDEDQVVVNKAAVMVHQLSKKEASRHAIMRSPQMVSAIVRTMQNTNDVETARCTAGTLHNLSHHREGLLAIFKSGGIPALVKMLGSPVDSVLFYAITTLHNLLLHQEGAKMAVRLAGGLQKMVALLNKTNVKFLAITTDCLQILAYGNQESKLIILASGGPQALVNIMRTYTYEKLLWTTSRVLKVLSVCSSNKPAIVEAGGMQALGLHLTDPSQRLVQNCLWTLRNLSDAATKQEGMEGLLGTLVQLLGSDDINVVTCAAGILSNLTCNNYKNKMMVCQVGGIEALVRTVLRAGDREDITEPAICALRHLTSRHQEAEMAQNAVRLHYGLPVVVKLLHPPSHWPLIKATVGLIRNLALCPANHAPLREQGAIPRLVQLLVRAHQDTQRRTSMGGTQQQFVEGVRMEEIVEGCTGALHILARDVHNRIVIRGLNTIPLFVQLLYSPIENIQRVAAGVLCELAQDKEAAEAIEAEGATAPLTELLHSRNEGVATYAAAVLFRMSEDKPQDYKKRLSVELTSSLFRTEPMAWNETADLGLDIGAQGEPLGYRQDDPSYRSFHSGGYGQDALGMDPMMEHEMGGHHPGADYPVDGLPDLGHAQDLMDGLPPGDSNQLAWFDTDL
# experiment-notes: Fluorescence polarization IC50 (beta-catenin / 5FAM-TCF4 10-53 competition)
# Format: binding
# condition-notes: read-out: FP EC50
pIC50: −log10 of the molar value.
Give 1 when the value for pIC50 is at least 7. Give 0 when it is less.

>  <compound>
CC(=O)N1CCC[C@]12CC=CCCCC1(CCCC=CCCCOC(=O)N3CC[C@@](C(=O)N[C@@H](Cc4ccccc4)C(=O)N[C@@H](Cc4csc5ccccc45)C(=O)N[C@@H](CCC(N)=O)C(N)=O)(C3)NC(=O)[C@H](CC(N)=O)NC(=O)[C@H](Cc3ccccc3)NC(=O)[C@H](C)NC(=O)[C@H](C)NC(=O)[C@H](CCC(=O)O)NC(=O)[C@H](CC(=O)O)NC1=O)NC(=O)[C@H](CC(C)(C)C)NC(=O)[C@H](CC(=O)O)NC2=O (stereo partly shown) [I-685]

>  <assigned-label>
1

$$$$
>  <compound>
CC(=O)N1CCC[C@]12CC=CCCCC1(CCCC=CCCCCCC[C@@](C)(C(=O)N[C@@H](CCc3ccccc3)C(=O)N[C@@H](Cc3csc4ccccc34)C(=O)N[C@@H](CCC(N)=O)C(N)=O)NC(=O)[C@H](CC(N)=O)NC(=O)[C@H](Cc3ccccc3)NC(=O)[C@H](C)NC(=O)[C@H](C)NC(=O)[C@H](CCC(=O)O)NC(=O)[C@H](CC(=O)O)NC1=O)NC(=O)[C@H](C)NC(=O)[C@H](CC(=O)O)NC2=O (stereo partly shown) [I-442]

>  <assigned-label>
0

$$$$
>  <compound>
CC(=O)N1CCC[C@]12CC=CCCCC1(CCCC=CCCCCCC[C@@](C)(C(=O)N[C@@H](Cc3ccccc3)C(=O)N[C@@H](Cc3csc4ccccc34)C(=O)N[C@H](C(N)=O)[C@@H](C)O)NC(=O)[C@H](CCC(N)=O)NC(=O)[C@H](Cc3ccccc3)NC(=O)[C@H](C)NC(=O)[C@H](C)NC(=O)[C@H](CCC(=O)O)NC(=O)[C@H](CC(=O)O)NC1=O)NC(=O)[C@H](C)NC(=O)[C@H](CC(=O)O)NC2=O (stereo partly shown) [I-507]

>  <assigned-label>
0

$$$$
>  <compound>
CC(=O)N1CCC[C@]12CC=CCCCC1(CCCC=CCCCCCC[C@@](C)(C(=O)N[C@@H](Cc3ccsc3)C(=O)N[C@@H](Cc3csc4ccccc34)C(=O)N[C@@H](CCC(N)=O)C(N)=O)NC(=O)[C@H](CC(N)=O)NC(=O)[C@H](Cc3ccccc3)NC(=O)[C@H](C)NC(=O)[C@H](C)NC(=O)[C@H](CC(=O)O)NC(=O)[C@H](CC(=O)O)NC1=O)NC(=O)[C@H](CC(C)C)NC(=O)[C@H](CC(=O)O)NC2=O (stereo partly shown) [I-680]

>  <assigned-label>
1

$$$$
>  <compound>
CC(=O)N1CCC[C@]12CC=CCCCC1(CCCC=CCCCCCC[C@@](C)(C(=O)N[C@@H](Cc3ccccc3)C(=O)N[C@@H](Cc3csc4ccccc34)C(=O)N[C@@H](Cc3cn(C)cn3)C(N)=O)NC(=O)[C@H](CC(N)=O)NC(=O)[C@H](Cc3ccccc3)NC(=O)[C@H](C)NC(=O)[C@H](C)NC(=O)[C@H](CCC(=O)O)NC(=O)[C@H](CC(=O)O)NC1=O)NC(=O)[C@H](C)NC(=O)[C@H](CC(=O)O)NC2=O (stereo partly shown) [I-479]

>  <assigned-label>
1

$$$$
>  <compound>
CC(=O)N1CCC[C@]12CC=CCCCC1(CCCC=CCCCCCC[C@@](C)(C(=O)N[C@@H](Cc3ccccc3)C(=O)N[C@@H](Cc3csc4ccccc34)C(=O)N[C@@H](CCC(N)=O)C(N)=O)NC(=O)[C@H](CC(N)=O)NC(=O)[C@H](Cc3ccccc3)NC(=O)[C@H](C)NC(=O)[C@H](C)NC(=O)[C@H](CC(=O)O)NC(=O)[C@H](CC(=O)O)NC1=O)NC(=O)[C@H](CC(C)C)NC(=O)[C@H](CC(=O)O)NC2=O (stereo partly shown) [I-563]

>  <assigned-label>
1

$$$$
>  <compound>
CC(=O)N1CCC[C@]12CC=CCCCC1(CCCC=CCCCCCC[C@@](C)(C(=O)N[C@@H](Cc3ccsc3)C(=O)N[C@@H](Cc3csc4ccccc34)C(N)=O)NC(=O)[C@H](CC(N)=O)NC(=O)[C@H](Cc3ccccc3)NC(=O)[C@H](C)NC(=O)[C@H](C)NC(=O)[C@H](CCC(=O)O)NC(=O)[C@H](CC(=O)O)NC1=O)NC(=O)[C@H](CC(C)(C)C)NC(=O)[C@H](CC(=O)O)NC2=O (stereo partly shown) [I-719]

>  <assigned-label>
1

$$$$

Origin of the recorded values: patent US20240116985A1
